# TGI annotations
- Tested on: U251 CNS
- protocol-details: NCI tumour cell line growth inhibition, 48 h

Please provide the recorded TGI for O=c1/c(=C\c2ccc(Br)cc2)sc2n1C(c1ccc(Br)cc1)C1=C(N=2)c2ccc3ccccc3c2OCC1 (stereo not given) , tested on U251 CNS. > 100 µM

Next compound up: O=C(CC(C(=O)c1cccs1)c1ccc2c(c1)OCO2)c1ccccc1 (stereo not given) > 100 µM

More entries:
Please provide the recorded TGI for CC1C(O)=C(O)c2ccccc2N1O (stereo not given) , tested on U251 CNS. > 100 µM

Next compound up: `C#CCNC(=O)CC[C@@H](C)[C@H]1CC[C@H]2[C@@H]3CC[C@@H]4CC(=O)CC[C@]4(C)[C@H]3CC[C@]12C` 39.4 µM

###

- System: MDA-N
- protocol-details: NCI tumour cell line growth inhibition, 48 h
property-name: TGI

Please look up its TGI: `CCc1ncc(CO)n1Cc1cccc2ccccc12` > 100 µM

Next molecule up: Nc1ccc(C2SCC(=O)N2NS(=O)(=O)c2cccc(C(=O)O)c2)cc1 (centres undefined) > 100 µM

Next molecule up: `O=C1OC(c2ccccc2Br)=N/C1=C/c1ccccc1` 49.4 µM

Next molecule up: `C=C1CC[C@@H]2[C@](C)(COC(=O)CCC(=O)O)CCC[C@@]2(C)[C@@H]1CCC1=CC(=O)OC1` > 100 µM

Next molecule up: `C[C@@H]1CC[C@@]2(C)[C@H](C)/C(=C\COC(=O)/C=C/c3ccc(O)c(O)c3)CC[C@@]12C` 14.3 µM

Next, consider the following molecule.
Please look up its TGI: `COCCCNc1c2ccccc2nc2ccccc12` 8.78 µM

###

- System: HOP-62 NSCLC
- protocol-details: NCI tumour cell line growth inhibition, 48 h
# TGI annotations
Write the answer as a number in µM, unit excluded.

Please provide the recorded TGI for `COc1cc(OC)c(/C=N\Nc2nc3ccccc3c(=O)n2-c2ccccc2)c(OC)c1` , tested on HOP-62 NSCLC. 47.7

Next, consider the following compound.
Please provide the recorded TGI for `CCOc1ccc2c(c1)C(=O)c1c-2n(CCCN=[N+]=[N-])c(=O)c2cc([N+](=O)[O-])ccc12` , tested on HOP-62 NSCLC. 43.6

###

- System: A549 NSCLC
- protocol-details: NCI tumour cell line growth inhibition, 48 h
property-name: TGI

Please look up its TGI: `O=C(CN1CCN(C(=O)c2ccco2)CC1)Nc1ccc(Cl)cc1C(=O)c1ccccc1Cl` 39.4 µM

###

- System: U251 CNS
- protocol-details: NCI tumour cell line growth inhibition, 48 h
# TGI annotations
Write the answer as a number in µM, unit excluded.

Please look up its TGI: `[CH3][Hg]/[N]=C(/N)NC#N` 56

More entries:
Please look up its TGI: `Cc1ccc(S(=O)(=O)Nn2c(S)c(C#N)c(-c3ccc(Cl)cc3)c(C#N)c2=O)cc1` 58

Next molecule up: `C=C(C)COc1cc(NC(=S)OC(C)C)ccc1Cl` 30.8

Next molecule up: `Cc1c(C#N)c2nc3ccccc3n2c(=O)/c1=C/Nc1ccc(Cl)cc1` 24.6

###

- System: SK-MEL-5 melanoma
- protocol-details: NCI tumour cell line growth inhibition, 48 h; in the data active = GI50 below about 0.43 µM; inactive = the rest
One label from this list, please: True (active), False (inactive)

Kindly provide the recorded test outcome for the following molecule: CO/C(=C1/NC(=O)C(Cc2ccc(O)c(Br)c2)N(C)C(=O)C(C)NC(=O)CCC/C=C(\C)CCC(C)OC1=O)c1ccccc1 (centres undefined) True

Next molecule up: `O=C(CCN1CCCN(c2cnc3ccccc3n2)CC1)c1csc2ccccc12` False

Next molecule up: `C[C@]12CC[C@@H]3c4ccc(OC(=O)N(CCCl)CCCl)cc4CC[C@H]3[C@@H]1CC[C@@H]2OP(=O)(O)O` False

Next molecule up: `CN1CCN(CCC=C2c3ccccc3Sc3ccc(S(=O)(=O)N(C)C)cc32)CC1` False

Next molecule up: `COC(=O)Nc1nc2ccc(C(=O)c3ccc(F)cc3)cc2[nH]1` True

Next up:
Kindly provide the recorded test outcome for the following molecule: O=C(NN1C(=O)CSC1c1c(Cl)cccc1Cl)C(O)c1ccccc1 (centres undefined) False
